# TARGET UNDER TEST: Full-length (FL)-PRMT5-MEP50 enzyme complex (Homo sapiens (Human), UniProt O14744)
# Sequence (O14744 whole entry): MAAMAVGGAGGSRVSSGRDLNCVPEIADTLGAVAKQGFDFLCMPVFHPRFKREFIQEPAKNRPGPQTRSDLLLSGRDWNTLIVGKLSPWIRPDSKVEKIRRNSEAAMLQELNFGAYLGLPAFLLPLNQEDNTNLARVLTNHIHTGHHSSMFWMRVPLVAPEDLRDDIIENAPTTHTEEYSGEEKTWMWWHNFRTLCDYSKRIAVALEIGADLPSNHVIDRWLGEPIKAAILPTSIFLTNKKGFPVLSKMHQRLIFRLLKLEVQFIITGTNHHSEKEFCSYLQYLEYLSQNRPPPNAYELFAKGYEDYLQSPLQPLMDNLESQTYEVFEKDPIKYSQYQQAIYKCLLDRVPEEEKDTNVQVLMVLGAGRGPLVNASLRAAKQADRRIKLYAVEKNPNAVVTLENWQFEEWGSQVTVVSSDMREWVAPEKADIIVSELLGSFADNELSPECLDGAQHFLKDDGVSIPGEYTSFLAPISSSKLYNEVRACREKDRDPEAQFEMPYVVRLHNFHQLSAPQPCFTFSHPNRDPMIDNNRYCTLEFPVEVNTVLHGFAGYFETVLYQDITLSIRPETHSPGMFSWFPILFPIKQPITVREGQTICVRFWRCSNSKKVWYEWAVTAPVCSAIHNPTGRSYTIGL
# Sequence (Q9BQA1 whole entry partner): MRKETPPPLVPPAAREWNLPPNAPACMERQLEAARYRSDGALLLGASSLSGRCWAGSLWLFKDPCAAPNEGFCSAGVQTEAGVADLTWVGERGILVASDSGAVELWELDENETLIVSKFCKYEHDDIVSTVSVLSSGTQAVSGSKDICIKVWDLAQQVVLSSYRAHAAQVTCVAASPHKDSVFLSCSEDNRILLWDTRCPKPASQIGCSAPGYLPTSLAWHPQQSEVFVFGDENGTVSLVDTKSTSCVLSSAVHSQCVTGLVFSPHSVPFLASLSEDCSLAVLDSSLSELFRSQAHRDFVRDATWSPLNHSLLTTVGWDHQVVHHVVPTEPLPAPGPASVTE
# TEST SUMMARY: PRMT5-MEP50 Enzyme Methylation Assay
# Type: biochemical
# TEST CONTEXT: read-out: Enzyme Methylation Assay IC50_2
pIC50: −log10 of the molar value.
// map pIC50 onto a label; ranges bottom bin (below 5), middle bin (5 to below 7), top bin (7 or more)

# MOLECULE, TARGET UNDER TEST, LABEL VALUE
measured = [
    ("CC1(C)CN(C[C@H](O)[C@@H]2Cc3ccccc3CN2)C(=O)c2ccc(Br)cc21", "Full-length (FL)-PRMT5-MEP50 enzyme complex (Homo sapiens (Human), UniProt O14744)", "bottom bin"),
    ("CC[C@H]1CN(C[C@@H](O)[C@@H]2Cc3ccccc3CN2)C(=O)c2ccc(C(=O)N3C4CCC3COC4)cc21 (single isomer, unassigned) [Example 14]", "Full-length (FL)-PRMT5-MEP50 enzyme complex (Homo sapiens (Human), UniProt O14744)", "top bin"),
    ("CC[C@H]1CN(C[C@@H](O)[C@@H]2Cc3ccccc3CN2)C(=O)c2ccc(Br)cc21 (single isomer, unassigned) [Example 2]", "Full-length (FL)-PRMT5-MEP50 enzyme complex (Homo sapiens (Human), UniProt O14744)", "middle bin"),
    ("CC1(C)CN(C[C@H](O)[C@@H]2Cc3ccccc3CN2)C(=O)c2ccc(C(=O)N3C4COC5C4OCC53)cc21", "Full-length (FL)-PRMT5-MEP50 enzyme complex (Homo sapiens (Human), UniProt O14744)", "bottom bin"),
]

Q: Kindly state the category for this molecule: CC[C@H]1CN(C[C@@H](O)[C@@H]2Cc3ccccc3CN2)C(=O)c2ccc(C(=O)N3C4CCC3COC4)cc21 (single isomer, unassigned) [Example 13]
A: middle bin

Q: Kindly state the category for this molecule: CC[C@H]1CN(C[C@@H](O)[C@@H]2Cc3ccccc3CN2)C(=O)c2ccc(-c3ncnn3C)cc21 (single isomer, unassigned) [Example 5]
A: bottom bin

Q: Kindly state the category for this molecule: "CO[C@@H]1C[C@H]2CC[C@@H](C1)N2C(=O)c1ccc2c(c1)C(C)(C)CN(C[C@@H](O)[C@@H]1Cc3ccccc3CN1)C2=O"
A: top bin

Q: Kindly state the category for this molecule: "CO[C@@H]1C[C@H]2CC[C@@H](C1)N2C(=O)c1ccc2c(c1)C(C)(C)CN(C[C@H](O)[C@@H]1Cc3ccccc3CN1)C2=O"
A: bottom bin

Q: Kindly state the category for this molecule: CC[C@H]1CN(C[C@@H](O)[C@@H]2Cc3ccccc3CN2)C(=O)c2ccc(Br)cc21 (single isomer, unassigned) [Example 1]
A: middle bin

Q: Kindly state the category for this molecule: "CC1(C)CN(C[C@@H](O)[C@@H]2Cc3ccccc3CN2)C(=O)c2ccc(N3C(=O)C4CCC3CC4)cc21"
A: middle bin

Q: Kindly state the category for this molecule: CC[C@H]1CN(C[C@@H](O)[C@@H]2Cc3ccccc3CN2)C(=O)c2ccc(C(=O)N3C4CCC3COC4)cc21 (single isomer, unassigned) [Example 15]
A: middle bin

Q: Kindly state the category for this molecule: CCC1CN(C[C@@H](O)[C@@H]2Cc3ccccc3CN2)C(=O)c2ccc(-c3ncnn3C3CC3)cc21 (single isomer, unassigned)
A: middle bin

Q: Kindly state the category for this molecule: CC[C@H]1CN(C[C@@H](O)[C@@H]2Cc3ccccc3CN2)C(=O)c2ccc(Br)cc21 (single isomer, unassigned) [Example 3]
A: bottom bin

Numbers sourced from patent US11098059B2.
